Molecular target: Bromodomain-containing protein 1 (Homo sapiens, UniProt O95696)
Sequence (O95696 whole entry): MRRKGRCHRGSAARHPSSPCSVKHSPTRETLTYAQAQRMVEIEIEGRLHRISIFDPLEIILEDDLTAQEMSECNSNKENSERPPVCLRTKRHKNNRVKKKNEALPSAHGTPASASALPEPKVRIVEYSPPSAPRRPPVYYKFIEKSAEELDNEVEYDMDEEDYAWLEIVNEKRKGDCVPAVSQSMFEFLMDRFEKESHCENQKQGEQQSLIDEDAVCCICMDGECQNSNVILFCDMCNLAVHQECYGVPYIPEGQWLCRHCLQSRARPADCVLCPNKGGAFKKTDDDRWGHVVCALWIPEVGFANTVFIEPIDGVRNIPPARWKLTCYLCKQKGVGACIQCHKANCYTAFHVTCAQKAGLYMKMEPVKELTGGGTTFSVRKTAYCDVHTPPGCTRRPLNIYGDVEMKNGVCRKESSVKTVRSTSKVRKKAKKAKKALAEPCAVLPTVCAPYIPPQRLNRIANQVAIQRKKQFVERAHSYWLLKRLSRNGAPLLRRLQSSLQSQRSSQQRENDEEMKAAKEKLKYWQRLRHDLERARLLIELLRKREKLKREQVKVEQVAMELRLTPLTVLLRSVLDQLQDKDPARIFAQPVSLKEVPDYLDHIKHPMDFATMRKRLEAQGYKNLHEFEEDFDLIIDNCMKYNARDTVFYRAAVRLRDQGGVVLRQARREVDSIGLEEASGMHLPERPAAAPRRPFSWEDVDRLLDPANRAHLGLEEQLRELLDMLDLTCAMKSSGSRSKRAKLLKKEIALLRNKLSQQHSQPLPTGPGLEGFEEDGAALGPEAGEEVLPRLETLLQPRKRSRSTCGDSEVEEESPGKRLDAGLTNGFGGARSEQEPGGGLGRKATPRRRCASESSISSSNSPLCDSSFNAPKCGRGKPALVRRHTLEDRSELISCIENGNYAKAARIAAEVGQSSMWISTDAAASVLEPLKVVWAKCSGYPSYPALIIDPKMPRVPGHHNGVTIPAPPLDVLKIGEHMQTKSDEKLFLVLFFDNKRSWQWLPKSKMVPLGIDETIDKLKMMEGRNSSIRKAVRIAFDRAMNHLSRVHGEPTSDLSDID
measuredAttribute: IC50 (nM)
One number for each entry, in nM.

Fill blank: measured IC50 of the compound `COc1cc(C#N)ccc1S(=O)(=O)Nc1ccc2c(c1)cc(C)c(=O)n2C` is ____.
315
